Measured composite z-score accompanies every entry in the list below.
biological target: Torsin-1A-interacting protein 1 (Homo sapiens) (UniProt Q5JTV8); assay: LAP1 binders from COS7 cell lysate, primary screen, small-molecule microarray, 635/667 nm fluorescence (AID 1116); settings: COS7-hLAP1 lysate binding, 635 nm fluorescence, higher = more signal
Sequence (Q5JTV8 whole entry, looked up): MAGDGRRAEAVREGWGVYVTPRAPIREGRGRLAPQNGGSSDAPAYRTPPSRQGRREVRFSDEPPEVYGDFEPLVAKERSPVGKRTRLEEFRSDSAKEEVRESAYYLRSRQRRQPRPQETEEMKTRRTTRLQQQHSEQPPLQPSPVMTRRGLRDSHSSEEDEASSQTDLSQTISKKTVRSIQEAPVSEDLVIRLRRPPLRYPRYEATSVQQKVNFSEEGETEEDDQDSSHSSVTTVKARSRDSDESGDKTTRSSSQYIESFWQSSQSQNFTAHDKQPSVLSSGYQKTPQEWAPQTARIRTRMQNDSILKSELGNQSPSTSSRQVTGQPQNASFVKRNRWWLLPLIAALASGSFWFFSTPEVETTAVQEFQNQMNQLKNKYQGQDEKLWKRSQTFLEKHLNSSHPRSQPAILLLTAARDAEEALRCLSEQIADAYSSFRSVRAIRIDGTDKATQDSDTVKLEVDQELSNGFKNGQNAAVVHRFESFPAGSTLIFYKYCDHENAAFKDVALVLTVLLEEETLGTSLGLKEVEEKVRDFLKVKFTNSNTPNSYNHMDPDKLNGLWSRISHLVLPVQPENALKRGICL
Experimental Readout: composite z-score

{"Compound": "C[C@@H]1CC[C@H]2C(=O)OC(Cc3ccccc3)CN2[C@H]1c1ccc(Br)cc1 (stereo not given in full)", "Target Entity": "Torsin-1A-interacting protein 1 (Homo sapiens) (UniProt Q5JTV8)", "Endpoint Result": 0.781}
{"Compound": "CCOC(=O)[C@H](CC(C)C)NC(=O)CCC1CC(OC(=O)NCc2ccc3c(c2)OCO3)CC2(CCCC(COC(=O)NCCc3ccccc3OC)O2)O1 (stereo not given in full)", "Target Entity": "Torsin-1A-interacting protein 1 (Homo sapiens) (UniProt Q5JTV8)", "Endpoint Result": 0.389}
{"Compound": "CC(C)CON=C1C[C@@H](O)[C@@H](O)[C@@H]2[C@@H]3C(=O)N(c4ccc(F)cc4F)C(=O)[C@@H]3CC[C@@H]12", "Target Entity": "Torsin-1A-interacting protein 1 (Homo sapiens) (UniProt Q5JTV8)", "Endpoint Result": 0.142}
{"Compound": "CCN1C(=O)[C@H]2[C@H]3[C@H](O)[C@H](O)CC(=NOCC[C@@H]4C=C[C@H](OC(C)=O)[C@@H](COC(C)=O)O4)[C@@H]3CC[C@H]2C1=O", "Target Entity": "Torsin-1A-interacting protein 1 (Homo sapiens) (UniProt Q5JTV8)", "Endpoint Result": -0.359}
{"Compound": "CC(=O)OC[C@H]1O[C@H](CC=NO[C@@H](C)c2cn([C@H](CO)Cc3ccccc3)nn2)C=C[C@@H]1OC(C)=O", "Target Entity": "Torsin-1A-interacting protein 1 (Homo sapiens) (UniProt Q5JTV8)", "Endpoint Result": 1.03}
{"Compound": "O=C1C2=CC[C@H]3C(=O)N(C4CCCCC4)C(=O)[C@H]3[C@H]2[C@H](O)[C@@H]2O[C@H]12", "Target Entity": "Torsin-1A-interacting protein 1 (Homo sapiens) (UniProt Q5JTV8)", "Endpoint Result": -0.11}
{"Compound": "CC(C)(C)N1C(=O)[C@H]2[C@H]3[C@H](O)[C@H](O)CC(=NNC(=O)OCc4ccccc4)[C@@H]3CC[C@H]2C1=O", "Target Entity": "Torsin-1A-interacting protein 1 (Homo sapiens) (UniProt Q5JTV8)", "Endpoint Result": 0.505}
{"Compound": "CC(C)=NO[C@@H](C)c1cn([C@H](CO)Cc2ccccc2)nn1", "Target Entity": "Torsin-1A-interacting protein 1 (Homo sapiens) (UniProt Q5JTV8)", "Endpoint Result": 0.541}
{"Compound": "CCc1cc2c(nc1CC)CCN(CCC(C)=NOC[C@@H](C)[C@H](OCc1ccccc1)C(C)C)C2", "Target Entity": "Torsin-1A-interacting protein 1 (Homo sapiens) (UniProt Q5JTV8)", "Endpoint Result": -0.667}
{"Compound": "COc1ccc(O[C@H]2C=C[C@@H](c3ccccc3)O[C@@H]2CON=C2c3cc(OC)ccc3O[C@H](c3cccc(OC)c3)[C@H]2O)cc1", "Target Entity": "Torsin-1A-interacting protein 1 (Homo sapiens) (UniProt Q5JTV8)", "Endpoint Result": 0.399}
{"Compound": "CON=C[C@@H](OC)[C@H](C)C=CCC(=O)OC", "Target Entity": "Torsin-1A-interacting protein 1 (Homo sapiens) (UniProt Q5JTV8)", "Endpoint Result": 0.447}
{"Compound": "CCOC(=O)CCN1C(=O)[C@H]2[C@H]3[C@H](O)[C@H](O)CC(=O)[C@@H]3CC[C@H]2C1=O", "Target Entity": "Torsin-1A-interacting protein 1 (Homo sapiens) (UniProt Q5JTV8)", "Endpoint Result": 0.597}
{"Compound": "CC(CCN1CCCc2nc(C)c(C)cc21)=NO[C@@H](C)c1cn([C@H](CO)Cc2ccccc2)nn1", "Target Entity": "Torsin-1A-interacting protein 1 (Homo sapiens) (UniProt Q5JTV8)", "Endpoint Result": 0.527}
{"Compound": "O=C1[C@H]2[C@H]3[C@H](O)[C@H](O)CC(=NOC[C@@H](O)COCc4ccco4)[C@@H]3CC[C@H]2C(=O)N1c1cccc(Oc2ccccc2)c1", "Target Entity": "Torsin-1A-interacting protein 1 (Homo sapiens) (UniProt Q5JTV8)", "Endpoint Result": -0.0841}
{"Compound": "CC(=O)OC[C@H]1O[C@@H](ON=C(C)CCC(=O)OC[C@H]2O[C@H](C#Cc3ccccc3)C=C[C@@H]2Oc2ccc(C)cc2)[C@H](OC(C)=O)[C@@H](OC(C)=O)[C@@H]1OC(C)=O", "Target Entity": "Torsin-1A-interacting protein 1 (Homo sapiens) (UniProt Q5JTV8)", "Endpoint Result": 0.415}
{"Compound": "CC(CCN1CCc2nc(-c3ccccc3)c(-c3ccccc3)cc2C1)=NO[C@@H](C)c1cc(-c2c(C)cc(C)cc2C)no1", "Target Entity": "Torsin-1A-interacting protein 1 (Homo sapiens) (UniProt Q5JTV8)", "Endpoint Result": -0.0029}
{"Compound": "CCOC(=O)[C@H](CC(C)C)NC(=O)CCC1CC(OC(=O)NCc2ccc3c(c2)OCO3)CC2(CCCC(COC(=O)NCCC(C)C)O2)O1 (stereo not given in full)", "Target Entity": "Torsin-1A-interacting protein 1 (Homo sapiens) (UniProt Q5JTV8)", "Endpoint Result": 0.0461}
{"Compound": "CC(C)=CCCC(C)=CCON=C1C[C@@H](O)[C@@H](O)[C@@H]2[C@@H]3C(=O)N(Cc4ccc5c(c4)OCO5)C(=O)[C@@H]3CC[C@H]12", "Target Entity": "Torsin-1A-interacting protein 1 (Homo sapiens) (UniProt Q5JTV8)", "Endpoint Result": 0.142}
{"Compound": "O=C1C=C[C@@H](O)[C@@H]2[C@@H]3C(=O)N(Cc4ccc5c(c4)OCO5)C(=O)[C@@H]3CC[C@@H]12", "Target Entity": "Torsin-1A-interacting protein 1 (Homo sapiens) (UniProt Q5JTV8)", "Endpoint Result": -0.127}
{"Compound": "CC(C)=NOC(C)CN1CCCCc2nc(C)c(C)cc21 (stereo not given)", "Target Entity": "Torsin-1A-interacting protein 1 (Homo sapiens) (UniProt Q5JTV8)", "Endpoint Result": 0.605}
{"Compound": "CCCNC(=O)OC[C@H]1O[C@H](CCON=C[C@@H](NS(=O)(=O)c2ccc(C)cc2)[C@H](C)C=CCC(=O)OC)C=C[C@@H]1Oc1ccc(OC)cc1", "Target Entity": "Torsin-1A-interacting protein 1 (Homo sapiens) (UniProt Q5JTV8)", "Endpoint Result": 0.247}
{"Compound": "CCCCOC(OCCCC)C(O)CSc1ccc2ccccc2c1 (stereo not given)", "Target Entity": "Torsin-1A-interacting protein 1 (Homo sapiens) (UniProt Q5JTV8)", "Endpoint Result": 0.506}
{"Compound": "CON=C(C)CCN1CCc2nc(-c3ccccc3)c(-c3ccccc3)cc2C1", "Target Entity": "Torsin-1A-interacting protein 1 (Homo sapiens) (UniProt Q5JTV8)", "Endpoint Result": 0.0735}
{"Compound": "O=C1C[C@H](c2ccccc2)[C@H](c2ccc(Br)cc2)O1", "Target Entity": "Torsin-1A-interacting protein 1 (Homo sapiens) (UniProt Q5JTV8)", "Endpoint Result": -0.264}
{"Compound": "COC(=O)C1=C(C)N(Cc2ccccc2)C2=C3C(=O)OCC[C@@H]3[C@@](O)(C(=O)OC)C(=O)N2[C@@H]1c1ccccc1", "Target Entity": "Torsin-1A-interacting protein 1 (Homo sapiens) (UniProt Q5JTV8)", "Endpoint Result": -0.207}
{"Compound": "COC(=O)[C@H](C)NC(=O)CCC1CC(OC(=O)NCc2cccc3ccccc23)CC2(CCCC(COC(=O)NCCOc3ccccc3)O2)O1 (stereo not given in full)", "Target Entity": "Torsin-1A-interacting protein 1 (Homo sapiens) (UniProt Q5JTV8)", "Endpoint Result": 0.347}
{"Compound": "C[C@H]1C=CCC(=O)OC[C@H](C)C(=O)N2CCC[C@H]2C(=O)OC1", "Target Entity": "Torsin-1A-interacting protein 1 (Homo sapiens) (UniProt Q5JTV8)", "Endpoint Result": 1.71}
{"Compound": "CCc1cc2c(nc1CC)CCN(CCC(C)=NO[C@@H]1O[C@H](COC(C)=O)[C@@H](OC(C)=O)[C@H](OC(C)=O)[C@H]1OC(C)=O)C2", "Target Entity": "Torsin-1A-interacting protein 1 (Homo sapiens) (UniProt Q5JTV8)", "Endpoint Result": 2.85}
{"Compound": "O=C(NN=C1C[C@@H](O)[C@@H](O)[C@@H]2[C@@H]3C(=O)N(c4ccc(F)cc4F)C(=O)[C@@H]3CC[C@H]12)OCc1ccccc1", "Target Entity": "Torsin-1A-interacting protein 1 (Homo sapiens) (UniProt Q5JTV8)", "Endpoint Result": 0.747}
{"Compound": "COc1ccc(COC(=O)NN=C2C[C@@H](O)[C@@H](O)[C@@H]3[C@@H]4C(=O)N(Cc5ccc6c(c5)OCO6)C(=O)[C@@H]4CC[C@H]23)cc1", "Target Entity": "Torsin-1A-interacting protein 1 (Homo sapiens) (UniProt Q5JTV8)", "Endpoint Result": 0.0406}
